- System: Escherichia coli
- method: minimum inhibitory concentration (MIC)
- measurement_parameters: isolate (source animal id): 171
readout_label: minimum inhibitory concentration

INSERT INTO results (compound, reading) VALUES
  ('CC[C@H]1OC(=O)C[C@@H](O)[C@H](C)[C@@H](O[C@@H]2O[C@H](C)[C@@H](O)[C@H](N(C)C)[C@H]2O)[C@@H](CCN2C[C@H](C)C[C@H](C)C2)C[C@@H](C)C(=O)/C=C/C(C)=C/[C@@H]1CO[C@@H]1O[C@H](C)[C@@H](O)[C@@H](OC)[C@H]1OC [Tilmicosin]', '> 16 µg/mL'),
  ('NC[C@@H]1O[C@H](O[C@H]2[C@@H](O)[C@H](O[C@@H]3[C@@H](O)[C@H](N)C[C@H](N)[C@H]3O[C@H]3O[C@H](CN)[C@@H](O)[C@H](O)[C@H]3N)O[C@@H]2CO)[C@H](N)[C@@H](O)[C@@H]1O [Neomycin]', '≤ 4 µg/mL');

Turning to the following compound.
Can you share its minimum inhibitory concentration? I mean this compound: COc1cc(Cc2cnc(N)nc2N)cc(OC)c1OC.Cc1cc(NS(=O)(=O)c2ccc(N)cc2)no1 [trimethoprim-sulfamethoxazole]
≤ 2 µg/mL
